So I've got a bunch of molecules here, and I need their pKd values.
target: SHP2 catalytic domain (219–528), C459S, wild-type (inactive) (Homo sapiens, UniProt Q06124, C459S); construct: SHP2 catalytic domains (219–528 with or without C459S) were sub-cloned into pBH4 vectors; His6 (N); assay: Fluorescence polarization titrations, inactive SHP2 catalytic domain; settings: competitive FP titration vs CF-ppIRS1 100 nM, protein fixed, unlabelled peptide varied; n = 3 technical replicates
Sequence (Q06124 219-528 C459S): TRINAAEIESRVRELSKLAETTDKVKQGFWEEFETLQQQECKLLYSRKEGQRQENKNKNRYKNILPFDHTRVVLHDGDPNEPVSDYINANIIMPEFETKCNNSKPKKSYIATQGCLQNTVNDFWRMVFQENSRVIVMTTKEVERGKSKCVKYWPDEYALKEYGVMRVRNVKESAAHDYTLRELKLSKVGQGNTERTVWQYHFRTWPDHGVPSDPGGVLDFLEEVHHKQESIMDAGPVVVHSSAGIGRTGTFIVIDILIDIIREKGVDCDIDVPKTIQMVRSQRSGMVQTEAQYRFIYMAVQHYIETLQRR
Remember the convention: pKd equals -log10 of concentration in molar.

Query: # return recorded pKd for input CC[C@H](C)[C@H](NC(=O)[C@H](CC(N)=O)NC(=O)[C@@H](NC(=O)[C@H](Cc1ccc(OP(=O)(O)O)cc1)NC(=O)[C@H](CCC(=O)O)NC(=O)CNC(=O)[C@@H]1CCCN1C(=O)[C@H](CO)NC(=O)[C@H](CCCCN)NC(=O)[C@@H]1CCCN1C(=O)[C@@H](N)CCC(=O)O)C(C)C)C(=O)N[C@@H](CCC(=O)O)C(=O)N[C@@H](Cc1ccccc1)C(=O)O
Reply: 5.08

Query: Give the value of pKd reported for the following: CSCC[C@H](NC(=O)[C@H](Cc1ccc(OP(=O)(O)O)cc1)NC(=O)[C@H](CC(=O)O)NC(=O)[C@H](CO)NC(=O)[C@H](Cc1c[nH]cn1)NC(=O)[C@H](CC(C)C)NC(=O)[C@H](CC(C)C)NC(=O)[C@H](CCCNC(=N)N)NC(=O)[C@H](CO)NC(=O)[C@@H](N)CCCNC(=N)N)C(=O)N[C@@H](CC(N)=O)C(=O)N[C@@H](CCSC)C(=O)N[C@H](C(=O)N1CCC[C@H]1C(=O)N[C@@H](CCCNC(=N)N)C(=O)N[C@@H](CCCNC(=N)N)C(=O)O)[C@@H](C)O
Reply: 4.40

Query: Let me know recorded pKd for CSCC[C@H](NC(=O)[C@@H]1CCCN1C(=O)[C@H](CCSC)NC(=O)[C@H](Cc1ccc(OP(=O)(O)O)cc1)NC(=O)[C@H](CC(=O)O)NC(=O)CNC(=O)[C@H](CO)NC(=O)CNC(=O)[C@H](CCCCN)NC(=O)[C@H](CCCNC(=N)N)NC(=O)CN)C(=O)N[C@@H](CO)C(=O)N1CCC[C@H]1C(=O)N[C@@H](CCCCN)C(=O)N[C@@H](CO)C(=O)O , thanks.
Reply: 3.59
